biological target: sphingosine kinase 2 (SK2) (Homo sapiens); assay: fluorescent NBD-sphingosine kinase assay with recombinant human SK2
Sequence (Q9NRA0 whole entry): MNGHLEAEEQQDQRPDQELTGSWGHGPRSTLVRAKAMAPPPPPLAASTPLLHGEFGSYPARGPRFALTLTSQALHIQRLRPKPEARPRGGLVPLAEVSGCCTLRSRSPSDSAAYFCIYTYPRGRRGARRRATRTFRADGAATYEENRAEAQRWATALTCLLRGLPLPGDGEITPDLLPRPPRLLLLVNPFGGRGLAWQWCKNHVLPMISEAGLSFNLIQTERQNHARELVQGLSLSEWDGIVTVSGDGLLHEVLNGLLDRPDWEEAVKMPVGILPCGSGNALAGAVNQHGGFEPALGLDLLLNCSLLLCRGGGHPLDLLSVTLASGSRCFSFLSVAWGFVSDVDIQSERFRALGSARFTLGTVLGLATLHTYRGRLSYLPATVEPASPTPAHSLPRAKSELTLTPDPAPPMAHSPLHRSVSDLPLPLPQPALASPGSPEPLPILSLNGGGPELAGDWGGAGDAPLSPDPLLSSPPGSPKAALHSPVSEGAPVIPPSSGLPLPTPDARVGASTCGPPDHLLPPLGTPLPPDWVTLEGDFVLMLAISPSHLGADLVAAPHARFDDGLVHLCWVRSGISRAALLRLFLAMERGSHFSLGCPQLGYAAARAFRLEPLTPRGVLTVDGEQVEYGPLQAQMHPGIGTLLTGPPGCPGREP
pIC50: −log10 of the molar value.
observation-type: pIC50

For the compound shown here, CCCCCCCCCCCCC/C=C/[C@H](O)[C@@H](CO)NC(=N)N [LCL351] , give the reported pIC50. ~4.24

----------
biological target: UniProt:Q9NYA1; assay: fluorescent NBD-sphingosine kinase assay with recombinant human SK1
Sequence (Q9NYA1 whole entry): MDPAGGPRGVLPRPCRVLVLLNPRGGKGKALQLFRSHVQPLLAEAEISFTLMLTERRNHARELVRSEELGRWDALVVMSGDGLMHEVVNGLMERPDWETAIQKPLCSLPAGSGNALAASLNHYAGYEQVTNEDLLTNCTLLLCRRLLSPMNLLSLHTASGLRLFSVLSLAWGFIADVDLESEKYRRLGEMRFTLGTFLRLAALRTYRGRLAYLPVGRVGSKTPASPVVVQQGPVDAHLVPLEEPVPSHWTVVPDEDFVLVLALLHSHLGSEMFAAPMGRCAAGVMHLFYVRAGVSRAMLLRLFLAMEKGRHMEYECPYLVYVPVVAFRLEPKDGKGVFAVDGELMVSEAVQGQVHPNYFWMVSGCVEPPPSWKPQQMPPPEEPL
observation-type: IC50

For the molecule shown here, `CCCCCCCCCCCCC/C=C/[C@H](O)[C@@H](CO)NC(=N)N` , give the reported IC50. ~5.5 µM

The reported measurements were obtained from paper PMC5509055.
